# study-system: human ACVR2A (human, UniProt P27037 20-135, limits assumed); note: test concentration or dose not given here
# Sequence (P27037 20-135 limits assumed): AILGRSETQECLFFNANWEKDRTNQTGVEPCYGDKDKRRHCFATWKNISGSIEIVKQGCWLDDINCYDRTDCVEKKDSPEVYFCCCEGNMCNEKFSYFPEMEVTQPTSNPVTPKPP
# experiment-summary: ELISA
reported-metric: optical density (OD)
Give the quantity in OD, number only.

Worked examples follow.
INSERT INTO results (binder, reported_metric, reported) VALUES
  ('365_B09 (antibody, V domains shown, VH/VL only) VH: EVQLLESGGGLVQPGGSLRLSCAASGFTFDSYSMNWVRQAPGKGLEWVAGINYNSGYKSYADSVKGRFTISRDNSKNTLYLQMNSLRAEDTAVYYCARSATWHDTHLDYWGQGTLVTVSS VL: DIQMTQSPSSLSASVGDRVTITCRASQSILRYLNWYQQKPGKAPKLLIYAATSLHSGVPSRFSGSGSGTDFTLTISSLQPEDFATYYCQQSYDNPLTFGGGTKVEIK', 'optical density', 3.26),
  ('365_A01 (antibody, V domains shown, VH/VL only) VH: EVQLLESGGGLVQPGGSLRLSCAASGFTFSDYGMNWVRQAPGKGLEWVAGINYNGGYTSYADSVKGRFTISRDNSKNTLYLQMNSLRAEDTAVYYCARSATWHDTHLDYWGQGTLVTVSS VL: DIQMTQSPSSLSASVGDRVTITCRASQSILTYVNWYQQKPGKAPKLVIYATTSLASGVPSRFSGSGSGTDFTLTISSLQPEDFATYYCQQSYSTPLTFGGGTKVEIK', 'optical density', 2.77),
  ('365_A10 (antibody, V domains shown, VH/VL only) VH: EVQLLESGGGLVQPGGSLRLSCAASGFTFSSYGMHWVRQAPGKGLEWVAGINYNSGYTSYADSVKGRFTISRDNSKNTLYLQMNSLRAEDTAVYYCARSATWHDTHLDYWGQGTLVTVSS VL: DIQMTQSPSSLSASVGDRVTITCRASQSILTYLNWYQQKPGKAPKLVIYAVTSLASGVPSRFSGSGSGTDFTLTISSLQPEDFATYYCQQSYDSPLTFGGGTKVEIK', 'optical density', 2.19),
  ('376_A04 (antibody, V domains shown, VH/VL only) VH: EVQLLESGGGLVQPGGSLRLSCAASGFTFDSYSMNWVRQAPGKGLEWVSNINYNGGYTSYADSVKGRFTISRDNSKNTLYLQMNSLRAEDTAVYYCARSANWHDTALDYWGQGTLVTVSS VL: DIQMTQSPSSLSASVGDRVTITCRASQSIVTYLNWYQQKPGKAPKLVIYAATSRASGVPSRFSGSGSGTDFTLTISSLQPEDFATYYCQQSYDSPLTFGGGTKVEIK', 'optical density', 3.59);

Q: Return reported optical density; argument: 365_E02 (antibody, V domains shown, VH/VL only) VH: EVQLLESGGGLVQPGGSLRLSCAASGFTFSSYSMNWVRQAPGKGLEWVANINYNGGYTSYADSVKGRFTISRDNSKNTLYLQMNSLRAEDTAVYYCAKSATWHDTHLDYWGQGTLVTVSS VL: DIQMTQSPSSLSASVGDRVTITCRASQSIISYLNWYQQKPGKAPKLLIYAATSRASGVPSRFSGSGSGTDFTLTISSLQPEDFATYYCQQSYENPLTFGGGTKVEIK
Result: 2.45
